Reference for the values: PubChem BioAssay (NCI)

# protocol_description: NCI Yeast Anticancer Drug Screen. Data for the rad50 strain (AID 155);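 also: 0% = growth of vehicle-only cultures of the same strain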
# measurement_conditions: S. cerevisiae rad50 strain growth inhibition; at 50.0 µM
# Procedure: Growth inhibition of yeast strains with defined genetic alterations is measured as a screen for potential anti-cancer activity. Selected strains with alterations in DNA damage repair or cell cycle control were exposed to compounds and growth inhibition was measured relative to vehicle treated controls. The strain used in this assay is rad50
The panel holds about 79,000 compounds, 15% with a hit somewhere; the sample as a whole holds those more often. Calls of active or inactive are those of the source. Rule as the data show it: active = growth inhibition above about 70%; inactive = the rest.
Possible outcomes: active, inactive

molecule | label
c1ccc(Cc2cc(-c3cc(Cc4ccccc4)[nH]n3)n[nH]2)cc1 | inactive
COC1OC2COC(C2O)C1OS(=O)(=O)c1ccc(C)cc1 (stereo unspecified) | inactive
O=S1c2ccccc2S(=O)c2ccccc21 (stereo unspecified) | inactive
O=C(CCBr)Nc1ccccc1 | inactive
CCOC(=O)C1=C(C(C)=O)C(c2ccc(OC)c(OC)c2)C(C(C)=O)=C(C(=O)OCC)N1 | inactive
Cc1ccc2c(c1)SCc1c-2[nH]c2ccccc12 | active

----------
As shown below, each of these compounds has a reported growth inhibition value.
# protocol_description: NCI Yeast Anticancer Drug Screen. Data for the rad50 strain (AID 155);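 also: 0% = growth of vehicle-only cultures of the same strain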
# measurement_conditions: S. cerevisiae rad50 strain growth inhibition; at 50.0 µM; stronger effect = higher value
This is part of a sample that, as a whole, favours compounds with a hit. Of some 79,000 tested, about 15% had one in any assay.

compound | growth inhibition (%)
COC(=O)c1cc(C(=O)OC)c2c3[nH]cnc3ncn2c1=O | 24.4
CNc1ccc(C)cc1S(=O)(=O)c1ccccc1[N+](=O)[O-] | 65.5
O=C1C2Cc3ccccc3CN2C(=O)N1CCN1CCOCC1 (stereo not given) | 7.25
CN1C[C@H]2[C@@H](C1=O)[C@H](c1ccc([N+](=O)[O-])cc1)ON2C | -50.5
Cc1cc(Cl)c(Cl)cc1NC(=O)c1c(Br)c(Br)c(Br)c(Br)c1C(=O)O | 0.7
CN(C)n1c(O)c(N=O)sc1=S | -30.9
c1ccc(CNC2Cc3ccccc3C2)cc1 | 19.6
COc1ccc2c(c1)/C(=C/c1cc(OC)c(OC)c(OC)c1)C(=O)N2 | 4.3
Cc1c(N)nc(C(CC(N)=O)NCC(N)C(N)=O)nc1C(=O)NC(C(=O)NC(C)C(O)C(C)C(=O)NC(C(=O)NCCc1nc(-c2nc(C(=O)NCCC[S+](C)CC(N)=O)cs2)cs1)C(C)O)C(OC1OC(CO)C(O)C(O)C1OC1OC(CO)C(O)C(OC(N)=O)C1O)c1cnc[nH]1 (stereo not given) | 63.9
Cc1ccc2c(ccc3nnc(C)n32)c1 | 9.15
CC(C)C1CCC2(C)C(CCC3C(C)(CO)CCCC32O)C1 (stereo not given) | -17.2
Cc1cccc(C)n1 | -1.85
c1ccc(CSc2ncnc3oc(-c4ccccc4)nc23)cc1 | 22.5
Clc1cccc2nsnc12 | 12.9
CCN(CC)CCCNc1ncc(C)c2[nH]c3ccncc3c12 | 2.9

----------
# protocol_description: NCI Yeast Anticancer Drug Screen. Data for the rad50 strain (AID 155);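 also: 0% = growth of vehicle-only cultures of the same strain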
# measurement_conditions: S. cerevisiae rad50 strain growth inhibition; at 50.0 µM; stronger effect = higher value
The panel holds about 79,000 compounds, 15% with a hit somewhere; the sample as a whole holds those more often.
As shown below, each of these compounds has a reported growth inhibition value.

compound | growth inhibition [%]
CCCCCCCCCCCC(=O)NC(=S)Nc1ccc(C(=O)OCC)cc1 | 29.9
C=CCCC1(C)OC(C)C(C)O1 (stereo unspecified) | 8.75
CC1(C)OC2C(=O)C3COC(O3)C2O1 (stereo unspecified) | -10.7
O=C(C1SCCCS1)N(O)c1ccccc1OCc1ccccc1 | -3.85
C/C=C/C1OCC(C)(C)CO1 | -0.8
CC(=O)CC(=O)NCC#N | 27.9
Clc1ccccc1/C=C/c1ccnnc1 | 15.8
CC(C)CC1OCC(C)(C)CO1 | -0.6
Cc1ccc(S(=O)(=O)NC2C(=O)c3ccccc3C(=O)C2n2ccnc2)cc1 (stereo unspecified) | 4.85
O=C(/C=C/C=C/c1ccccc1)CCc1ccccc1 | 6.75
CC(=O)Oc1ccc2ccccc2c1CS(=O)(=O)O | 5.6

----------
# protocol_description: NCI Yeast Anticancer Drug Screen. Data for the mlh1 rad18 strain (AID 175)
# measurement_conditions: S. cerevisiae mlh1 rad18 strain growth inhibition; at 50.0 µM
# Protocol: Growth inhibition of yeast strains with defined genetic alterations is measured as a screen for potential anti-cancer activity. Selected strains with alterations in DNA damage repair or cell cycle control were exposed to compounds and growth inhibition was measured relative to vehicle treated controls. The strain used in this assay is mlh1 rad18
About 79,000 compounds went through this panel and 15% of them were active in at least one assay; those are over-represented in the sample as a whole. The source made the active and inactive calls. No stated cut-off is given here; in the data, active means growth inhibition above about 70%; inactive means the rest.
Possible outcomes: 1.0 = active, 0.0 = inactive

compound | label
CCCCN(CCCC)CC(O)c1cc(OC)c2cc(Cl)cc(Cl)c2n1 (stereo unspecified) | 1.0
Nc1ncnc(N)c1NC(=O)c1ccc(SCc2ccccc2)cc1 | 0.0
CC(CO)(CO)N1C(=O)c2cccc3cc([N+](=O)[O-])cc(c23)C1=O | 0.0
Fc1cccc(-c2nnc(-c3cccc4ccccc34)o2)c1 | 0.0
CSc1ccc(OC(=O)NC2CCCCC2)cc1C | 0.0
Cc1ccc2ccc(C)nc2c1 | 0.0

----------
# protocol_description: NCI Yeast Anticancer Drug Screen. Data for the sgs1 mgt1 strain (AID 161);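 also: 0% = growth of cultures given vehicle only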
# measurement_conditions: S. cerevisiae sgs1 mgt1 strain, at 50.0 µM
Compounds without any hit were thinned out: in the full panel of roughly 79,000, 15% have a hit. Activity calls are given as the source filed them. No stated cut-off is given here; in the data, active means growth inhibition above about 70%; inactive means the rest.
Possible outcomes: active, inactive

compound | label
C=C1C(=C)C2C=CC1C1C3C(c4ccccn4)=NN=C(c4ccccn4)C3C21 (stereo not drawn) | inactive
c1ccc2c(C3=NCCO3)cccc2c1 | inactive
CN(C)/C=N/NC(=O)C(O)c1ccccc1 (stereo not drawn) | inactive
O=C1OCCC1(Cc1ccc(Cl)cc1)Cc1ccc(Cl)cc1 | inactive
O=C1CSC(=S)N1/N=C/c1ccc([N+](=O)[O-])s1 | active
Cc1ccc(CN(CCO)Cc2ccccc2)cc1 | inactive
Fc1c(F)c(F)c(CSc2nc3ccccc3[nH]2)c(F)c1F | inactive
Cc1cc[n+]2c(c1)-c1cc(C)cc[n+]1CC2 | inactive

----------
# protocol_description: NCI Yeast Anticancer Drug Screen. Data for the rad50 strain (AID 155);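 also: 0% = growth of vehicle-only cultures of the same strain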
# measurement_conditions: S. cerevisiae rad50 strain growth inhibition; at 50.0 µM
About 79,000 compounds went through this panel and 15% of them were active in at least one assay; those are over-represented in the sample as a whole. Activity calls are given as the source filed them. Cut-off read from the data, not from the text of the source: active = growth inhibition above about 70%; inactive = the rest.
Possible outcomes: active, inactive

compound | label
CCCCN(CCCC)CC(O)c1cc(OC)c2cc(Cl)cc(Cl)c2n1 (configuration not stated) | active
Cc1cc2ccccc2n1CC(=O)N1CCCC1 | inactive
CN(C)P1(=O)N(c2ccc(Cl)cc2)P(=O)(N(C)C)N1c1ccc(Cl)cc1 (configuration not stated) | inactive
O=C1CC(C(=O)O)CC(=O)CC(C(=O)O)C1 (configuration not stated) | inactive
CCOC1NC(=O)c2ccccc21 (configuration not stated) | inactive
c1ccc2c(-c3ccncc3)c3ccccc3cc2c1 | inactive
NCC(=O)N1CCCC1C(=O)O (configuration not stated) | inactive
O=C(Nc1ccc(C2=NCCN2)cc1)c1ccc(C(=O)Nc2ccc(C3=NCCN3)cc2)cc1 | inactive
CN(C)NC(=O)CC#N | inactive
[Cl][Ge]([Cl])([c]1ccccc1)[c]1ccccc1 | inactive
COc1c2c(cc3nc4ccccc4nc13)CCC(C(C)(C)O)C2 (configuration not stated) | inactive
Cc1nc(C)c(N2CCN(S(N)(=O)=O)CC2)c(=O)[nH]1 | inactive
CN1CCC(c2ccccc2)(c2ccccc2)C(O)C1 (configuration not stated) | inactive
O=S(=O)(O)C(O)C(c1ccccc1)c1ccccc1 (configuration not stated) | inactive
CCOC(=O)C1=C(O)CSC1=Nc1ccccc1 | inactive
CC1OC(O[C@H]2CC[C@]3(C)[C@H]4CC=C5[C@@H]6[C@@H](C)[C@H](C)CC[C@]6(C(=O)O)CC[C@@]5(C(=O)O)[C@]4(C)CC[C@H]3C2(C)C)C(O)C(O)C1O (some centres not stated) | inactive
Cc1cc(Cc2ccc(NC(=O)N3CC3)c(C)c2)ccc1NC(=O)N1CC1 | inactive

----------
# protocol_description: NCI Yeast Anticancer Drug Screen. Data for the mlh1 rad18 strain (AID 175)
# measurement_conditions: S. cerevisiae mlh1 rad18 strain growth inhibition; at 50.0 µM; stronger effect = higher value
This is part of a sample that, as a whole, favours compounds with a hit. Of some 79,000 tested, about 15% had one in any assay. Calls of active or inactive are those of the source. Rule as the data show it: active = growth inhibition above about 70%; inactive = the rest.
measure_name: growth inhibition

molecule | measure_name | value_reported
C=C(C)CC1CN2CCc3cc(OC)c(OC)cc3C2CC1=O (centres undefined) | growth inhibition | 26.6% (inactive)
CNC(=S)NC(=S)N(C)C | growth inhibition | 35.9% (inactive)
CC(=O)Nc1cc2c(cc1C=O)OCO2 | growth inhibition | 11.3% (inactive)
Cc1cc(Cl)ccc1OCC(=O)OCC(C)(C)[N+](=O)[O-] | growth inhibition | 33.7% (inactive)
CCCS(=O)(=O)CCC(=O)c1cccs1 | growth inhibition | 5.95% (inactive)
CC(=O)c1cc(C)c(O)c(C)c1 | growth inhibition | -5.55% (inactive)
CNc1nc(SCc2ccccc2)c2ncn(C3OC(CO)C(O)C3O)c2n1 (centres undefined) | growth inhibition | 17.9% (inactive)
O=C1OC(=O)C2C3C=CC(C3)C12 (centres undefined) | growth inhibition | 21.4% (inactive)
COC(=O)C1(C)CCCC2(C)C1CCC13OC1C1(C(C)C)OC1CC23 (centres undefined) | growth inhibition | 8.2% (inactive)
CCc1ccc(OC(C)=O)cc1 | growth inhibition | 15.6% (inactive)
Cc1ccc(-n2c(=S)n(-c3ccccc3C)c3nc4ccccc4nc2/c3=N\Nc2ccccc2)cc1 | growth inhibition | -22.1% (inactive)
C[N+](C)(C[Si](C)(C)C)C1CCCCCCCCCCC1 | growth inhibition | 22.2% (inactive)
O=C(N=C1SCCS1)Nc1cccc(Cl)c1 | growth inhibition | 37.2% (inactive)
CN(C)c1ccccc1CCCCCBr | growth inhibition | 3.75% (inactive)
Nc1ccccc1NC(=O)C(F)(F)F | growth inhibition | 1.15% (inactive)
Oc1ccc(CCC2CCNCC2)cc1 | growth inhibition | -30.1% (inactive)
COC(=O)C1=C2C3(O)CC4CC5C3CCC(C)N5C24C2CCC(O)C(OC)C2C1OC(=O)c1ccccc1 (centres undefined) | growth inhibition | 4.35% (inactive)
CC1(CCOCc2ccccc2)NC(=O)NC1=O (centres undefined) | growth inhibition | -19.9% (inactive)
NNC(=O)C(O)C(O)C(=O)NN (centres undefined) | growth inhibition | -8.1% (inactive)
COC(=O)C(Cc1ccccc1)NC(=O)C1CSC(C)(C)N1C=O (centres undefined) | growth inhibition | -20.4% (inactive)
COC1=C(C(=O)OC(C)(C)C)[C@]2(C)C(C(=O)OC(C)(C)C)C(OC)=C(C(=O)OC(C)(C)C)[C@]2(C)C1C(=O)OC(C)(C)C (some centres undefined) | growth inhibition | 29.9% (inactive)
C(=NC12CC3CC(CC(C3)C1)C2)C1CCCCC1 | growth inhibition | -2.5% (inactive)
CCC1=NO[C@@H](C(=O)OCc2ccccc2)[C@H]1C | growth inhibition | -21.4% (inactive)
O=C(O)Cn1c(=O)n(CC(=O)O)c2ccccc21 | growth inhibition | -7.65% (inactive)
Cc1ccc2c(c1)C1(c3ccc(Cl)c(Cl)c3)Oc3ccc(C)cc3C(c3ccc(Cl)c(Cl)c3)(O2)O1 | growth inhibition | -3% (inactive)
COc1ccc(CCNC(=O)CC2CCN(C)CC2)cc1OC | growth inhibition | -3.75% (inactive)
Clc1cnnc(Cl)c1N/N=C/c1ccco1 | growth inhibition | -7.55% (inactive)
Clc1ccc(C2N3CCCCC3[C@@H]3c4[nH]c5ccccc5c4CCN23)cc1 (some centres undefined) | growth inhibition | -8.5% (inactive)
CCCCCCCCCCCCC(F)C(=O)OCC1OC(n2cc(C)c(=O)[nH]c2=O)CC1N=[N+]=[N-] (centres undefined) | growth inhibition | 14.8% (inactive)
COc1cccc(Oc2c(O)c3ccc(OC)cc3oc2=O)c1 | growth inhibition | 8.75% (inactive)
C/C(=N\NC(=S)Nc1ccc(C(=O)O)cc1)c1nccc2ccccc12 | growth inhibition | 7.25% (inactive)
CN1CCC(n2[nH]c(-c3ccccc3)c(Cc3ccccc3)c2=O)CC1 | growth inhibition | 5.7% (inactive)
COc1ccc(O)c(C(=O)O)c1 | growth inhibition | 2.15% (inactive)
Cc1noc2cccc(O)c12 | growth inhibition | 34.6% (inactive)
